Below: a set of entries, each annotated with reported Binding.
system-under-test: Albumin (Homo sapiens, UniProt P02768)
Sequence (P02768 whole entry): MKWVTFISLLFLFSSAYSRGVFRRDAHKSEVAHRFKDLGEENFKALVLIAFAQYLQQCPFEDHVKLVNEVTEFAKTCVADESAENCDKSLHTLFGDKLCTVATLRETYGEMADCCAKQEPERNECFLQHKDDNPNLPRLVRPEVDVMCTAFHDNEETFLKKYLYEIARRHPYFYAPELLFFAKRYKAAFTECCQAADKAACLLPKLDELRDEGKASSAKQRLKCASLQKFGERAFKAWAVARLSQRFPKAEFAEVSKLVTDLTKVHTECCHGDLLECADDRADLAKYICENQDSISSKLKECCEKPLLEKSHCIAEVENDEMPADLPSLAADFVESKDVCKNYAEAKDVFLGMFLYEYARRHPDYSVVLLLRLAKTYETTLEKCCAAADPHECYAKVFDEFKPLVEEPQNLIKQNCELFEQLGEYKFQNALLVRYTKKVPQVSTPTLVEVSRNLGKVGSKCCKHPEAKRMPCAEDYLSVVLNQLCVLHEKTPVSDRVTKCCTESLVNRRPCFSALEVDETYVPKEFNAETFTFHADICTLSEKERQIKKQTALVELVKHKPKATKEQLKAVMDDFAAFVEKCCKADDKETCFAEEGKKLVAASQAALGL
test-protocol: Binding affinity towards Human Serum albumin.

molecule: C[C@@H](O)[C@H]1C(=O)N2C(C(=O)O)=C(Sc3nc(-c4ccc(Cl)cc4)cs3)[C@H](C)[C@H]12
system-under-test: Albumin (Homo sapiens, UniProt P02768)
censoring-qualifier: >
Binding [%]: 94

molecule: CCCc1csc(SC2=C(C(=O)O)N3C(=O)[C@H]([C@@H](C)O)[C@H]3[C@H]2C)n1
system-under-test: Albumin (Homo sapiens, UniProt P02768)
censoring-qualifier: =
Binding [%]: 96

molecule: C[C@@H](O)[C@H]1C(=O)N2C(C(=O)O)=C(Sc3ncc(-c4ccccc4)s3)[C@H](C)[C@H]12
system-under-test: Albumin (Homo sapiens, UniProt P02768)
censoring-qualifier: >
Binding [%]: 94

molecule: C[C@@H](O)[C@H]1C(=O)N2C(C(=O)O)=C(SCCN=CN)C[C@H]12 [IMIPENEM ANHYDROUS]
system-under-test: Albumin (Homo sapiens, UniProt P02768)
censoring-qualifier: <
Binding [%]: 10

molecule: Cc1nc(SC2=C(C(=O)O)N3C(=O)[C@H]([C@@H](C)O)[C@H]3[C@H]2C)sc1C
system-under-test: Albumin (Homo sapiens, UniProt P02768)
censoring-qualifier: >
Binding [%]: 75

molecule: Cc1csc(SC2=C(C(=O)O)N3C(=O)[C@H]([C@@H](C)O)[C@H]3[C@H]2C)n1
system-under-test: Albumin (Homo sapiens, UniProt P02768)
censoring-qualifier: =
Binding [%]: 93

molecule: C[C@@H](O)[C@H]1C(=O)N2C(C(=O)O)=C(Sc3nc(-c4ccncc4)cs3)[C@H](C)[C@H]12
system-under-test: Albumin (Homo sapiens, UniProt P02768)
censoring-qualifier: =
Binding [%]: 97

molecule: C[C@@H](O)[C@H]1C(=O)N2C(C(=O)O)=C(Sc3nc(-c4ccc(CN)cc4)cs3)[C@H](C)[C@H]12
system-under-test: Albumin (Homo sapiens, UniProt P02768)
censoring-qualifier: =
Binding [%]: 87

molecule: C[C@@H](O)[C@H]1C(=O)N2C(C(=O)O)=C(Sc3nc(-c4ccccc4)cs3)[C@H](C)[C@H]12
system-under-test: Albumin (Homo sapiens, UniProt P02768)
censoring-qualifier: >
Binding [%]: 94
